Tested on: barnyardgrass
Assay: Test B pre-/postemergence herbicide test
Assay type: in vivo, Echinochloa crus-galli
Conditions: postemergence, 125 g ai/ha; visual rating, scale 0 (no effect) to 100 (complete control)
Task for the reader: assign each of the following molecules its reported Barnyardgrass plant response rating.
Numbers only.

// solved cases for Barnyardgrass plant response rating follow
- smilesRecord: "CCc1nc(C(C)(C)C)sc1C(=O)Nc1cc(C(=O)N(C)C)ccc1F"
  Barnyardgrass plant response rating: 10
- smilesRecord: "CCCCOc1cccc(NC(=O)c2cc(C(C)(C)C)nn2CC)c1"
  Barnyardgrass plant response rating: 30
- smilesRecord: "CCn1nc(C(C)(C)C)cc1C(=O)Nc1cccc(C(=O)NCC2CC2)c1"
  Barnyardgrass plant response rating: 20
- smilesRecord: "CCNC(=O)c1cccc(NC(=O)c2nn(C(C)(C)C)cc2C(F)(F)F)c1"
  Barnyardgrass plant response rating: 0
- smilesRecord: "CCn1nc(C(C)(C)C)cc1C(=O)Nc1cccc(C(C)=O)c1"
  Barnyardgrass plant response rating: 0

Would you mind listing Barnyardgrass plant response rating for each of the following molecules?
1. CCn1nc(C(C)(C)C)cc1C(=O)Nc1ccnc(C(=O)N(C)C)c1
2. CCn1nc(C(C)(C)C)cc1C(=O)Nc1cncc(C(=O)N2CC=CC2)c1
3. Cn1nc(C(C)(C)C)cc1C(=O)Nc1cccc(C#N)c1
4. C#CCNC(=O)c1ccc(F)c(NC(=O)c2cc(C(C)(C)C)nn2CC)n1

[0, 0, 0, 0]

----------
Assignment: determine reported Rice plant response rating for the given compounds.
System: rice
Test: Test C flooded paddy test
Format: in vivo, Oryza sativa
Conditions: 250 g ai/ha, scale of 0 to 100, 0 is no effect, 100 is complete control

Worked examples, 2 compounds total:
- compound: "CCN1N=C(C(C)(C)C)CC1C(=O)Nc1cc(C(=O)N2CC=CC2)ccc1F (racemic) [Compound 310]"
  measuredEndpoint: "Rice plant response rating"
  testResult: 70
- compound: "CC(=O)c1cccc(NC(=O)c2cc(C(C)(C)C)nn2CCF)c1 [Compound 128]"
  measuredEndpoint: "Rice plant response rating"
  testResult: 70

Reported Rice plant response rating ( C=CCNC(=O)c1cccc(NC(=O)c2nn(C(C)C)nc2CC)c1 [Compound 382] ) = 70

----------
Assignment: determine reported Plant response rating, Cupgrass, Woolly for the given compounds.
Tested on: woolly cupgrass
Experiment: Test C pre-/postemergence herbicide test
Assay type: in vivo, Eriochloa villosa
Conditions: 125 g ai/ha; scale 0 (no effect) to 100 (complete control); visual, 12 to 14 days; preemergence
Text: […]
Give bare numbers.

// input: 3 compounds below; output: Plant response rating, Cupgrass, Woolly for each
1. C=CCn1nc(C(C)(C)C)cc1C(=O)Nc1cccc(C(=O)NCC)c1
2. CCNC(=O)c1cccc(NC(=O)c2cc(C(C)(C)C)nn2CC)n1
3. CCn1nc(C(C)(C)C)cc1C(=O)Nc1ccc(OC)c(OC)c1

1: 0; 2: 5; 3: 10

----------
Test system: smallflower umbrella sedge
Assay: Test C flooded paddy test
Format: in vivo, Cyperus difformis
Details: 500 g ai/ha, visual rating after 12 to 14 days, scale 0 to 100 (0 no effect, 100 complete control)
Assignment: determine reported Plant response rating, Sedge, Umbrella for the given compounds.

Answered cases to consult:
- compound: "CCn1nc(C(C)(C)C)cc1C(=O)Nc1ccc(OC)c(OC)c1"
  testResult: 80
- compound: "CCNC(=O)c1ccc(F)c(NC(=O)c2cc(C(C)(C)C)nn2CC)n1"
  testResult: 75
- compound: "CCN1N=C(C(C)(C)C)CC1C(=O)Nc1cc(C(=O)N2CC=CC2)ccc1F (racemic)"
  testResult: 85

// for each compound below, give its Plant response rating, Sedge, Umbrella
1. CCn1nc(C(C)(C)C)cc1C(=O)Nc1ccc(OC)c(C(=O)OC(C)C)c1
2. CCN(CC)C(=O)c1ccc(F)c(NC(=O)C2CC(C(C)(C)C)=NN2CC)c1 (racemic)
3. Cc1nn(C(C)(C)C)nc1C(=O)Nc1cc(C(=O)N(C)C)ccc1F
4. CCn1nc(C2(C)CC2)cc1C(=O)Nc1cc(C(=O)N2CC=CC2)ccc1F
5. CCn1nc(C(C)(C)C)cc1C(=O)Nc1cc(C(=O)NCC2CC2)ccn1
6. CCN1CCc2c(NC(=O)c3cc(C(C)(C)C)nn3CC)cccc2C1=O

90
80
80
95
75
90

Give one value of Plant response rating, Sedge, Umbrella per listed compound.
1. CCNC(=O)c1ccc(F)c(NC(=O)c2cn(C(C)(C)C)nc2CC)c1
2. CCc1nn(C(C)C)nc1C(=O)Nc1cccc(C(=S)N(C)C)c1
3. C#CCNC(=O)c1cccc(NC(=O)c2sc(C(C)(C)C)nc2CC)c1
4. C=Cn1nc(C(C)(C)C)cc1C(=O)Nc1cccc(C(=O)N(CC)CC)c1

1. 85
2. 90
3. 80
4. 90

Hi! Can you tell me Plant response rating, Sedge, Umbrella for each of these compounds?
1. CON=C(C)c1cccc(NC(=O)c2cc(C(C)(C)C)nn2C)c1
2. CCOC(=O)c1cc(NC(=O)c2cc(C(C)(C)C)nn2CC)c(F)cc1OC
3. CCc1nc(C(C)(C)C)sc1C(=O)Nc1cccc(C(=O)NCCF)c1

1. 80
2. 90
3. 80
